Where do the numbers come from? From patent US11072607B2.

A collection of molecules and their measured Ki
Target: human RIP1 kinase domain (2-375) (Homo sapiens (Human))
Sequence (Q13546 2-375): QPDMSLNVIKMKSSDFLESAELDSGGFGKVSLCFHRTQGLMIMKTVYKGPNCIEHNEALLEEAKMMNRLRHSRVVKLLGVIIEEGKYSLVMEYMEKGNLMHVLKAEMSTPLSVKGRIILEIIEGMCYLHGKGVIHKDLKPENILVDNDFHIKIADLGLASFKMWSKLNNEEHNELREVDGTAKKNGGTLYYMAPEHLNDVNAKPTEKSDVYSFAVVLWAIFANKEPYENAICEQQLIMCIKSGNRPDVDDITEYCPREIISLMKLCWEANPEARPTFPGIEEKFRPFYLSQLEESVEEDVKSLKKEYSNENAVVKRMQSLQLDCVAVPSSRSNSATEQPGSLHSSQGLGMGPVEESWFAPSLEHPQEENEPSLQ
Assay: RIP1 kinase inhibition assay (biochemical, Transcreener ADP assay)
Settings: tight-binding apparent inhibition constant (Ki app, Morrison equation); 50 nM enzyme, 50 uM ATP, 2 hours incubation, fluorescence polarization; read-out: RIP1 Ki
MEASURED QUANTITY: Ki (nM)

MOLECULE: Cc1cc2n(n1)CC[C@H](NC(=O)c1nc3n(n1)[C@@H](c1ccccc1)C[C@@H]3F)C(=O)N2C (single isomer, unassigned)
RECORDED MEASUREMENT: 30
//
MOLECULE: CN1C(=O)[C@@H](NC(=O)c2nc3n(n2)C(c2ccccc2)CC3(F)F)COc2ccccc21 (stereo partly drawn)
RECORDED MEASUREMENT: 33
//
MOLECULE: CN1C(=O)[C@@H](NC(=O)c2nc3n(n2)C(c2ccccc2)CC3F)CCn2nccc21 (stereo partly drawn)
RECORDED MEASUREMENT: 49
